Source listed as patent US20220275067A1.

- ASSAYED TARGET: human tau oligomers (human, UniProt P10636-6 2-383, limits assumed)
- Sequence (P10636 other isoform, or with tags, fused parts or gaps limits assumed): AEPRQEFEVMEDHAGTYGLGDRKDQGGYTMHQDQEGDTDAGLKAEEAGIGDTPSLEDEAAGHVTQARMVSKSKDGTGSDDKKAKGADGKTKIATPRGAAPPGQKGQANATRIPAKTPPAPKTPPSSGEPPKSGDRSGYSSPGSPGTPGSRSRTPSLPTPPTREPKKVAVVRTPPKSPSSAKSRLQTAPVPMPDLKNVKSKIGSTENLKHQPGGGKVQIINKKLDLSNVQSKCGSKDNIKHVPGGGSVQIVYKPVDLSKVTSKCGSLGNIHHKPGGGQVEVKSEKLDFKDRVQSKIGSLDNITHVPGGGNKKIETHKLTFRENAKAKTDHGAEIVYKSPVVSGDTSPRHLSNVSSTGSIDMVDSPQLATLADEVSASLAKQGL
- ASSAY PROTOCOL: cell-based or functional assay
Here the recorded LDH released by primary neurons with tau oligomers, antibody at 1 molar equivs is given for each entry.

These recorded examples may help you get a feel for the data.
[[record]]
binder = "mouse 10C12 antibody (antibody, mouse IgG2a, V domains shown, also called m10C12) VH: EVQLQQSGAELVRPGASVKLSCTASGFNIKDDYMNWVKQRPERGLEWIGWIDPENGDTEYASKFQGKATMTADTSSNTAYLQFSSLTSEDTAVYYCTTSNGWGQGTLVTVST VL: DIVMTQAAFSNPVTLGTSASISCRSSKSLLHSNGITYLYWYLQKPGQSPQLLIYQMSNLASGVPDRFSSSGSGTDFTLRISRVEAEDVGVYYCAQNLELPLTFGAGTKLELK"
recorded_measurement = "109 % of control"

[[record]]
binder = "mouse 12C4 antibody (antibody, mouse IgG2a, V domains shown, also called m12C4) VH: EVQLQQSGAELVRPGASVKLSCTASGFNIKDDYMNWVRQRPERGLEWIGWIDPENGDTAYASKFQGKATMTADTSSNTAYLQFSSLTSEDSAVYYCTTSNGWGQGTLVTVSA VL: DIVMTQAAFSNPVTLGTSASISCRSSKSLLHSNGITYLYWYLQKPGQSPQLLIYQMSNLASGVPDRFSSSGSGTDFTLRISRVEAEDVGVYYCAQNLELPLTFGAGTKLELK"
recorded_measurement = "124 % of control"

[[record]]
binder = "mouse 9F5 antibody (antibody, mouse IgG1, V domains shown, also called m9F5; murine 9F5) VH: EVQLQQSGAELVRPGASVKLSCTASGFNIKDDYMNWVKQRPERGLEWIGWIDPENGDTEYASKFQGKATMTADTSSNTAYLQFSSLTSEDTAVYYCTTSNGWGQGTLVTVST VL: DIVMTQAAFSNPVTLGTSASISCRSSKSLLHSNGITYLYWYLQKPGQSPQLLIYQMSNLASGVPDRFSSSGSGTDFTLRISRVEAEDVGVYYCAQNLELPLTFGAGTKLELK"
recorded_measurement = "116 % of control"


Here is the next item to consider.
# lookup: LDH released by primary neurons with tau oligomers, antibody at 1 molar equivs of mouse 2D11 antibody (antibody, mouse IgG2a, V domains shown) VH: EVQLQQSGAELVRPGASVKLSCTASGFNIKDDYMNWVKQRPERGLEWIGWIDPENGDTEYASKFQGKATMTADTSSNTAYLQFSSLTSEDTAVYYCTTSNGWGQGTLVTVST VL: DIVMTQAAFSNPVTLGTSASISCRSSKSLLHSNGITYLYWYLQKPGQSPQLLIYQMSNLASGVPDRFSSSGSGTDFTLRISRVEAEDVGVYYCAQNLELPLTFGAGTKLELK
131 % of control
